- system.name: APE1 (Homo sapiens, UniProt P27695)
- Construct: made in house
- Sequence (P27695 whole entry): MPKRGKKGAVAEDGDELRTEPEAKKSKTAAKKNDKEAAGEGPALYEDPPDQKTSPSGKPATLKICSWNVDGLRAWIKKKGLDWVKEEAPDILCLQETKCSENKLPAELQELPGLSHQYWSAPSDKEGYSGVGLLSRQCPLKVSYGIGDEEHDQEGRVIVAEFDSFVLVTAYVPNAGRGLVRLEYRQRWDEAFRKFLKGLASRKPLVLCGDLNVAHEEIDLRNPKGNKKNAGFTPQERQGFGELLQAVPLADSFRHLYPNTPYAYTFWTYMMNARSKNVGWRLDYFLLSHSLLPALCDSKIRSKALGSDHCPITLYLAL
- experiment.summary: Gel-based APE1 incision assay with fluorescence (TAMRA) detection
- Format: biochemical
- experimental.conditions: estimated IC50, fluorophore detection; entries 113-223; read-out: F-PAGE Assay IC50
Entries and their pIC50
pIC50 field: float, defined as -log10 of concentration (mol/L).

// below: answered compounds
{"columns": ["item.smiles", "pIC50"],
 "data": [
  ["O=C(C[C@@H]1C/C=C\\C[C@H](Cc2ccc(F)cc2)C(=O)OC[C@@H](Cc2c[nH]c3ccccc23)NC1=O)NCCO", 5.25],
  ["CC1CCN(C2=NN3C(=N)/C(=C\\c4ccc(OC(=O)c5ccco5)cc4)C(=O)N=C3S2)CC1", 5.40]
]}

Input line: Recorded pIC50 of `O=C(NC1CC1)C1CCN(S(=O)(=O)c2cc([N+](=O)[O-])ccc2Cl)CC1` , please.
Output line: 5.05

Input line: Which pIC50 is reported for this compound? `CCOc1ccc(NC(=O)c2cccc(-n3cccc3)c2)cc1S(=O)(=O)N1CCOCC1`
Output line: 5.55

Input line: # query: pIC50 of entry `CCCCN(C(=O)c1cccc(-n2cccc2)c1)c1c(N)n(Cc2ccccc2)c(=O)[nH]c1=O`
Output line: 5.55

Input line: Endpoint output: pIC50 of `COc1ccc(NC(=O)CN(C)C(=O)c2cccc(-n3cccc3)c2)cc1` . Value?
Output line: 5.46

Input line: Please look up its pIC50: `CCN(CC(=O)Nc1c(F)cccc1F)C(=O)/C=C/c1ccc2ccccc2n1`
Output line: 5.40

Input line: Entry under review: `COc1ccc(S(=O)(=O)N2CCOCC2)cc1NC(=O)c1cccc(-n2cccc2)c1` . Reported pIC50?
Output line: 5.35

====

- system.name: APE1 (Homo sapiens, UniProt P27695)
- Construct: made in house
- experiment.summary: Gel-based radiotracer (32P) APE1 incision assay;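 also: APE1 incision reactions ran 5 min at 37 °C, with cleaved product and intact substrate resolved electrophoretically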
- Assay type: biochemical
- Set-up: concentration or dose not given beside the values
- experimental.conditions: percent incision shown; entries 1-112
parameter.measured: Radiotracer Assay (%Activity) (%)
Could you give me the number in %? Just the number is fine.

Some solved cases for reference:
{"columns": ["compound", "Radiotracer Assay (%Activity) [%]"],
 "data": [
  ["Cn1cccc1/C=C1\\C(=O)NC(=O)N(Cc2ccco2)C1=O", 5],
  ["COc1ccc(CCn2c(O)cc3nn(-c4nc5ccccc5s4)c(=O)c-3c2C)cc1", 20],
  ["COc1cc(O)c2c(c1)oc(=O)c1c3cc(O)c(O)cc3oc21", 8.4],
  ["Oc1cc(O)c2c(c1)OC(c1ccc(O)c(O)c1)C(O)C2 (centres unmarked)", 35.9],
  ["Cc1cccc(N2NC(=O)/C(=C/c3ccc(-c4ccc(Cl)c(C(=O)O)c4)o3)C2=O)c1", 32],
  ["NC(=O)Cn1c(=O)n(Cc2ccco2)c(=O)c2c3c(sc21)CCCCC3", 21],
  ["O=C1NN(c2ccccc2)C(=O)/C1=C/c1ccc(-c2ccc(Cl)c(C(=O)O)c2)o1", 37]
]}

Now, please, on to the next compound.
Input line: Look at this compound and give its reported Radiotracer Assay (%Activity). `O=C1/C(=C/C=C/c2ccco2)SC(=S)N1NS(=O)(=O)c1ccccc1`
Output line: 6
